- subjectOfTest: C-terminal catalytic domain of human DNMT3A (hDNMT3A) (Homo sapiens, UniProt Q9Y6K1)
- Construct: catalytic domain of human DNMT3A (residues 623–908), produced as described; made in house
- Sequence (Q9Y6K1 627-912): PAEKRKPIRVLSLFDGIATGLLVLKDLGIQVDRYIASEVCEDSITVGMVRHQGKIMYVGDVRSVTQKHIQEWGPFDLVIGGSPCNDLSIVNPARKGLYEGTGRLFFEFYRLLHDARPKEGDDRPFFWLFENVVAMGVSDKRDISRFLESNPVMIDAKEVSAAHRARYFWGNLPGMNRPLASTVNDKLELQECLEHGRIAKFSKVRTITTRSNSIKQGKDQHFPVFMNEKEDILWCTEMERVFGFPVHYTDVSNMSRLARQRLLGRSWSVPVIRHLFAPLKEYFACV
- experimentSummary: DNMT3A assay (restriction-based fluorescence assay)
- Type: biochemical
- measurementSetup: 32 µM compound; read-out: % inhibition ± SD hDNMT3A
inhibition at 32 µM of 40% or higher: satisfied. Under 40%: not satisfied.

Worked cases, answers included:
compound: c1ccc(CN2CCC(Nc3nc(N4CCCCC4)nc4ccccc34)CC2)cc1 [Compound 6]
subjectOfTest: C-terminal catalytic domain of human DNMT3A (hDNMT3A) (Homo sapiens, UniProt Q9Y6K1)
label: not satisfied
--
compound: CN1CCN(c2nc(NC3CCN(Cc4ccccc4)CC3)c3ccccc3n2)CC1 [Compound 5]
subjectOfTest: C-terminal catalytic domain of human DNMT3A (hDNMT3A) (Homo sapiens, UniProt Q9Y6K1)
label: not satisfied
--
compound: CC1CCN(c2nc(NC3CCN(Cc4ccccc4)CC3)c3ccccc3n2)CC1 [Compound 8]
subjectOfTest: C-terminal catalytic domain of human DNMT3A (hDNMT3A) (Homo sapiens, UniProt Q9Y6K1)
label: not satisfied

Task: Does inhibition at 32 µM meet or surpass 40% for CN1CCCN(c2nc(NC3CCN(Cc4ccccc4)CC3)c3ccccc3n2)CC1 [Compound 4] ?
Output: satisfied

Task: Does inhibition at 32 µM meet or surpass 40% for c1ccc(CN2CCC(Nc3nc(N4CCCCCC4)nc4ccccc34)CC2)cc1 [Compound 7] ?
Output: not satisfied

Task: Does inhibition at 32 µM meet or surpass 40% for c1ccc(CN2CCC(Nc3nc(N4CCCC4)nc4ccccc34)CC2)cc1 [Compound 10] ?
Output: satisfied

Cited source for all entries: paper PMC4014597
